All figures here come from the supplement of paper PMC6607015.

// whole-cell filipin (z-score) lookup, one value per entry
- Tested on: HeLa MZ
- experimental.details: whole-cell filipin (free cholesterol) integrated intensity, Z-score; higher = more cholesterol staining
- setup.conditions: compound concentration in added solution (µM; 5 µl added to 20 µl cells): 10; 18 h
measurement.type: whole-cell filipin (z-score)

{"compound": "Cc1cc(C(=O)NNCc2ccccc2)no1", "result": -0.63}
{"compound": "CC1(C)S[C@@H]2[C@H](NC(=O)Cc3ccccc3)C(=O)N2[C@H]1C(=O)O [Benzylpenicillin sodium]", "result": 2.18}
{"compound": "NCCCC(O)(P(=O)(O)O)P(=O)(O)O [Alendronate sodium]", "result": -0.128}
{"compound": "CO[C@@]1(NC(=O)C2SC(=C(C(N)=O)C(=O)O)S2)C(=O)N2C(C(=O)O)=C(CSc3nnnn3C)CS[C@@H]21 (some centres undefined)", "result": -0.864}
